membrane partition coefficient KP (KP x 10^3) for assorted compounds
- PROTOCOL SUMMARY: Vesicle; KP from the fits
- PARTICULARS: DMPC/PG vesicles (MST); buffer
Non-standard residues stand in square brackets, D forms with d. Residues, ends and D or L forms follow the SMILES beside them.
ENDPOINT: membrane partition coefficient KP (KP x 10^3)

- COMPOUND: "CC(C)C[C@@H]1NC(=O)[C@@H](CCCNC(=N)N)NC(=O)[C@H](CCCCN)NC(=O)[C@H](CC(N)=O)NC(=O)[C@@H](Cc2c[nH]c3ccccc23)NC(=O)[C@H](Cc2c[nH]c3ccccc23)NC1=O [compound 5] (cyclo(LW[dW]NK[dR]))"
  ENDPOINT VALUE: "1.47 ± 0.07 x10^3"
- COMPOUND: "N=C(N)NCCC[C@@H]1NC(=O)[C@H](Cc2c[nH]c3ccccc23)NC(=O)[C@H](CCCNC(=N)N)NC(=O)[C@H](Cc2c[nH]c3ccccc23)NC(=O)[C@H](CCCNC(=N)N)NC(=O)[C@H](Cc2c[nH]c3ccccc23)NC1=O [compound 2] (cyclo(WRWRWR))"
  ENDPOINT VALUE: "16.97 ± 3.83 x10^3"

---

- PROTOCOL SUMMARY: SPR, peptide binding to LUVs immobilized on L1 chip
- PARTICULARS: SPR, 95% DMPC 5% DMPG LUVs on L1 chip, 10 mM HEPES pH 7.4 100 mM NaCl, room temperature, 400 s dissociation phase, two-population fit averaged
Non-standard residues stand in square brackets, D forms with d. Residues, ends and D or L forms follow the SMILES beside them.

- MOLECULE: "CC(C)C[C@@H]1NC(=O)[C@@H](CCCNC(=N)N)NC(=O)[C@H](CCCCN)NC(=O)[C@H](CC(N)=O)NC(=O)[C@@H](Cc2c[nH]c3ccccc23)NC(=O)[C@H](Cc2c[nH]c3ccccc23)NC1=O [compound 5] (cyclo(LW[dW]NK[dR]))"
  koff PC/PG: "1.75 ± 0.16 s⁻¹"
- MOLECULE: "NCCCC[C@@H]1NC(=O)[C@H](Cc2c[nH]c3ccccc23)NC(=O)[C@H](CCCCN)NC(=O)[C@H](Cc2c[nH]c3ccccc23)NC(=O)[C@H](CCCCN)NC(=O)[C@H](Cc2c[nH]c3ccccc23)NC1=O [compound 4] (cyclo(WKWKWK))"
  koff PC/PG: "1.32 ± 0.05 s⁻¹"
- MOLECULE: "N=C(N)NCCC[C@@H]1NC(=O)[C@H](Cc2c[nH]c3ccccc23)NC(=O)[C@H](CCCNC(=N)N)NC(=O)[C@H](Cc2c[nH]c3ccccc23)NC(=O)[C@H](CCCNC(=N)N)NC(=O)[C@H](Cc2c[nH]c3ccccc23)NC1=O [compound 2] (cyclo(WRWRWR))"
  koff PC/PG: "0.48 ± 0.05 s⁻¹"
- MOLECULE: "N=C(N)NCCC[C@@H]1NC(=O)[C@H](CCCNC(=N)N)NC(=O)[C@H](Cc2c[nH]c3ccccc23)NC(=O)[C@H](Cc2c[nH]c3ccccc23)NC(=O)[C@H](Cc2c[nH]c3ccccc23)NC(=O)[C@H](CCCNC(=N)N)NC1=O [compound 1] (cyclo(WWWRRR))"
  koff PC/PG: "0.19 ± 0.01 s⁻¹"
- MOLECULE: "NCCCC[C@@H]1NC(=O)[C@H](CCCCN)NC(=O)[C@H](Cc2c[nH]c3ccccc23)NC(=O)[C@H](Cc2c[nH]c3ccccc23)NC(=O)[C@H](Cc2c[nH]c3ccccc23)NC(=O)[C@H](CCCCN)NC1=O [compound 3] (cyclo(WWWKKK))"
  koff PC/PG: "0.32 ± 0.05 s⁻¹"

---

- PROTOCOL SUMMARY: Label-free MST, peptide binding to 100 nm vesicles
- PARTICULARS: label-free MST (Trp fluorescence), 2500 nM AMP, lipid 0–1.5 mM, 10 mM TRIS pH 7.4 100 mM NaCl, Hill fit of Fnorm in TRIC phase; mean ± SD of triplicates; '>' = minimum value, insufficient curve sampling; read-out: Vesicle KD, DMPC (MST)
pKd: −log10 of the molar value. Non-standard residues stand in square brackets, D forms with d. Residues, ends and D or L forms follow the SMILES beside them.

- COMPOUND: "N=C(N)NCCC[C@@H]1NC(=O)[C@H](Cc2c[nH]c3ccccc23)NC(=O)[C@H](CCCNC(=N)N)NC(=O)[C@H](Cc2c[nH]c3ccccc23)NC(=O)[C@H](CCCNC(=N)N)NC(=O)[C@H](Cc2c[nH]c3ccccc23)NC1=O [compound 2] (cyclo(WRWRWR))"
  RELATION SYMBOL: "="
  pKd: 4.14
- COMPOUND: "CC(C)C[C@@H]1NC(=O)[C@@H](CCCNC(=N)N)NC(=O)[C@H](CCCCN)NC(=O)[C@H](CC(N)=O)NC(=O)[C@@H](Cc2c[nH]c3ccccc23)NC(=O)[C@H](Cc2c[nH]c3ccccc23)NC1=O [compound 5] (cyclo(LW[dW]NK[dR]))"
  RELATION SYMBOL: "<"
  pKd: 3.17
- COMPOUND: "NCCCC[C@@H]1NC(=O)[C@H](CCCCN)NC(=O)[C@H](Cc2c[nH]c3ccccc23)NC(=O)[C@H](Cc2c[nH]c3ccccc23)NC(=O)[C@H](Cc2c[nH]c3ccccc23)NC(=O)[C@H](CCCCN)NC1=O [compound 3] (cyclo(WWWKKK))"
  RELATION SYMBOL: "="
  pKd: 4.55
- COMPOUND: "NCCCC[C@@H]1NC(=O)[C@H](Cc2c[nH]c3ccccc23)NC(=O)[C@H](CCCCN)NC(=O)[C@H](Cc2c[nH]c3ccccc23)NC(=O)[C@H](CCCCN)NC(=O)[C@H](Cc2c[nH]c3ccccc23)NC1=O [compound 4] (cyclo(WKWKWK))"
  RELATION SYMBOL: "="
  pKd: 3.55
- COMPOUND: "N=C(N)NCCC[C@@H]1NC(=O)[C@H](CCCNC(=N)N)NC(=O)[C@H](Cc2c[nH]c3ccccc23)NC(=O)[C@H](Cc2c[nH]c3ccccc23)NC(=O)[C@H](Cc2c[nH]c3ccccc23)NC(=O)[C@H](CCCNC(=N)N)NC1=O [compound 1] (cyclo(WWWRRR))"
  RELATION SYMBOL: "="
  pKd: 4.68

---

- PROTOCOL SUMMARY: SPR, peptide binding to LUVs immobilized on L1 chip
- PARTICULARS: SPR steady state analysis, 95% DMPC 5% DMPG LUVs on L1 chip, HEPES pH 7.4, room temperature; mean ± SD of triplicates; read-out: SPR KD, DMPC/PG
pKd: −log10 of the molar value. Non-standard residues stand in square brackets, D forms with d. Residues, ends and D or L forms follow the SMILES beside them.

- COMPOUND: "NCCCC[C@@H]1NC(=O)[C@H](CCCCN)NC(=O)[C@H](Cc2c[nH]c3ccccc23)NC(=O)[C@H](Cc2c[nH]c3ccccc23)NC(=O)[C@H](Cc2c[nH]c3ccccc23)NC(=O)[C@H](CCCCN)NC1=O [compound 3] (cyclo(WWWKKK))"
  pKd: 3.95
- COMPOUND: "N=C(N)NCCC[C@@H]1NC(=O)[C@H](CCCNC(=N)N)NC(=O)[C@H](Cc2c[nH]c3ccccc23)NC(=O)[C@H](Cc2c[nH]c3ccccc23)NC(=O)[C@H](Cc2c[nH]c3ccccc23)NC(=O)[C@H](CCCNC(=N)N)NC1=O [compound 1] (cyclo(WWWRRR))"
  pKd: 4.15
- COMPOUND: "NCCCC[C@@H]1NC(=O)[C@H](Cc2c[nH]c3ccccc23)NC(=O)[C@H](CCCCN)NC(=O)[C@H](Cc2c[nH]c3ccccc23)NC(=O)[C@H](CCCCN)NC(=O)[C@H](Cc2c[nH]c3ccccc23)NC1=O [compound 4] (cyclo(WKWKWK))"
  pKd: 3.32
- COMPOUND: "N=C(N)NCCC[C@@H]1NC(=O)[C@H](Cc2c[nH]c3ccccc23)NC(=O)[C@H](CCCNC(=N)N)NC(=O)[C@H](Cc2c[nH]c3ccccc23)NC(=O)[C@H](CCCNC(=N)N)NC(=O)[C@H](Cc2c[nH]c3ccccc23)NC1=O [compound 2] (cyclo(WRWRWR))"
  pKd: 3.98
- COMPOUND: "CC(C)C[C@@H]1NC(=O)[C@@H](CCCNC(=N)N)NC(=O)[C@H](CCCCN)NC(=O)[C@H](CC(N)=O)NC(=O)[C@@H](Cc2c[nH]c3ccccc23)NC(=O)[C@H](Cc2c[nH]c3ccccc23)NC1=O [compound 5] (cyclo(LW[dW]NK[dR]))"
  pKd: 2.99

---

Kd listing for selected compounds.
- PROTOCOL SUMMARY: Label-free MST, peptide binding to SMA nanodiscs
- PARTICULARS: label-free MST, SMA nanodiscs (anionic belt), 2500 nM AMP; apparent KD dominated by interaction with SMA polymer; mean ± SD of triplicates; read-out: SMA KD, DMPC/PG (MST)
Residues, ends and D or L forms follow the SMILES beside them.
ENDPOINT: Kd (µM)

- COMPOUND: "NCCCC[C@@H]1NC(=O)[C@H](CCCCN)NC(=O)[C@H](Cc2c[nH]c3ccccc23)NC(=O)[C@H](Cc2c[nH]c3ccccc23)NC(=O)[C@H](Cc2c[nH]c3ccccc23)NC(=O)[C@H](CCCCN)NC1=O [compound 3] (cyclo(WWWKKK))"
  ENDPOINT VALUE: 1.1
- COMPOUND: "N=C(N)NCCC[C@@H]1NC(=O)[C@H](Cc2c[nH]c3ccccc23)NC(=O)[C@H](CCCNC(=N)N)NC(=O)[C@H](Cc2c[nH]c3ccccc23)NC(=O)[C@H](CCCNC(=N)N)NC(=O)[C@H](Cc2c[nH]c3ccccc23)NC1=O [compound 2] (cyclo(WRWRWR))"
  ENDPOINT VALUE: 5.6
- COMPOUND: "NCCCC[C@@H]1NC(=O)[C@H](Cc2c[nH]c3ccccc23)NC(=O)[C@H](CCCCN)NC(=O)[C@H](Cc2c[nH]c3ccccc23)NC(=O)[C@H](CCCCN)NC(=O)[C@H](Cc2c[nH]c3ccccc23)NC1=O [compound 4] (cyclo(WKWKWK))"
  ENDPOINT VALUE: 9.8
- COMPOUND: "N=C(N)NCCC[C@@H]1NC(=O)[C@H](CCCNC(=N)N)NC(=O)[C@H](Cc2c[nH]c3ccccc23)NC(=O)[C@H](Cc2c[nH]c3ccccc23)NC(=O)[C@H](Cc2c[nH]c3ccccc23)NC(=O)[C@H](CCCNC(=N)N)NC1=O [compound 1] (cyclo(WWWRRR))"
  ENDPOINT VALUE: 2.2
